Reference source: PubChem BioAssay AID624466

- measured.target: Trace amine-associated receptor 1 (Homo sapiens) (UniProt Q96RJ0)
- Sequence (Q96RJ0 whole entry, looked up): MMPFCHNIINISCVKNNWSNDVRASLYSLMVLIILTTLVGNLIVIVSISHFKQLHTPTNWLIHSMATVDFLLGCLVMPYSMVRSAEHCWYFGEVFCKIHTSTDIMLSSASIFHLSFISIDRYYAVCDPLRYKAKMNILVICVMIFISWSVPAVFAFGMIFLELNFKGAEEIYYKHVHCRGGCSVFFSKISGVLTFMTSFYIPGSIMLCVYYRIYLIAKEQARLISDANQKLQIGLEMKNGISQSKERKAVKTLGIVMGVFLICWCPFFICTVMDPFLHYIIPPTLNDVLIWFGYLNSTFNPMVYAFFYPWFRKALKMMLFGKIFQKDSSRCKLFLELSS
- assay.summary: blockers of beta-PEA-driven TAAR1 calcium signal – Fluo-8 calcium fluorescence, CHO RD-HGA16 cells, primary screen (AID 624466);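 further: 0% = DMSO plus EC80 beta-PEA response and 100% = DMSO alone without agonist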
- assay.conditions: CHO RD-HGA16 TAAR1, Fluo-8 calcium fluorescence, antagonist; at 3 µM; stronger effect = higher value
Among all 360,000 compounds or so, about 5,400 (1.5%) were called active. The sample holds actives, similar compounds and a random draw of the others, so the mix is not that of the screen.
observed.property: inhibition (%)

• COC(=O)c1ccc(Oc2nc(Nc3ccc(F)cc3)nc(N3CCCC3)n2)cc1 = -16.1
• CCOC(=O)c1cc(-c2ccc(Cl)s2)nc2c1c(C)nn2C = 1.4
• CCCCNC(=O)Nc1c(C)cc(SC#N)cc1C = 7.39
• COCCCNC(=O)C1CC(=O)N(c2ccc(C)cc2)C1 (stereo unspecified) = -3.91
• CSc1ccc(C#N)cc1NC(=O)c1cccc(Cl)c1 = -1.36
• CCN1CCN(c2nc(Nc3cc(OC)ccc3OC)nc(Nc3cc(OC)ccc3OC)n2)CC1 = -14.1
• O=C(NCc1ccc(F)cc1F)[C@@H]1CCCN1C(=O)[C@@H]1CCCN1C(=O)c1cccc(Cl)c1 = -26.2
• Nc1ncnc2c1ncn2[C@@H]1O[C@H](C(=O)N[C@@H](CCc2ccccc2)C(=O)NCC(=O)N2CCOCC2)[C@@H](O)[C@H]1O = 8.4
• COc1ccccc1OCCNC(=O)C(CCSC)NC(=O)COc1ccccc1 (stereo unspecified) = -26.3
• CC(=O)N1CCN(C(=O)c2cc(-c3ccc(Cl)s3)nc3ccccc23)CC1 = 52
• Cc1ccc(Sc2ccc(NC(=O)c3ccc(F)cc3)cc2C#N)cc1 = 47.8
• O=C1[C@@H](c2ccccc2)[C@@H](c2ccccc2)N1c1ccccc1 = -22.7
• CC(=O)OC[C@@H]1CN(Cc2ccccc2)C[C@H](n2cnc3c(NCc4ccco4)ncnc32)O1 = -4.46
• COc1ccc(Sc2ccc(NC(=O)c3cccc(Cl)c3)cc2C#N)cc1 = 48.8
• Clc1ccccc1Nc1nc(NCc2cccs2)nc2ccsc12 = 7.32
• COc1ccc(N/N=C2/CCCCC2=O)cc1 = -11.3
• CC(C)N(C)C(=O)CCc1nnc(CCc2c[nH]c3ccccc23)o1 = -0.9
• Cc1ccccc1CN1CCC(C(=O)Nc2ccc(Oc3cccnc3)cc2)CC1 = -4.26
• O=C(O)C1CCCN1S(=O)(=O)c1ccc(Br)cc1 (stereo unspecified) = -6.42
• O=C1C(Cl)=C(Oc2ccccc2)C(=O)c2ccccc21 = 50.9
• CC(C)C[C@H]1CNC(=O)C(=O)N1C[C@H]1CCCN1C[C@H](Cc1ccc(O)cc1)N1C[C@H](CC(C)C)N(CC2CCCCCC2)C(=O)C1=O = 6.77

###

Below: a set of entries, each annotated with reported inhibition.
- measured.target: Trace amine-associated receptor 1 (Homo sapiens)
- assay.summary: blockers of beta-PEA-driven TAAR1 calcium signal – Fluo-8 calcium fluorescence, CHO RD-HGA16 cells, primary screen (AID 624466);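 further: 0% = DMSO plus EC80 beta-PEA response and 100% = DMSO alone without agonist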
- assay.conditions: CHO RD-HGA16 TAAR1, Fluo-8 calcium fluorescence, antagonist; at 3 µM; stronger effect = higher value
About 5,400 (1.5%) of roughly 360,000 compounds were called active. The entries come from a sample that favours actives as a whole.
observed.property: inhibition

- O=C(NCc1ccccn1)[C@@H]1CCCN1C(=O)[C@@H]1CCCN1C(=O)c1ccccc1: -3.32% (inactive)
- COc1ccc(CCNC(=O)c2ccccc2OCc2ccccc2)cc1: -1.77% (inactive)
- CCc1cccc(CC)c1N1C(=O)CC(Sc2ccccc2N)C1=O (stereo unspecified): -2.71% (inactive)
- CCOc1ccc(NC(=O)Nc2ccc(N(C)C(C)=O)cc2)cc1: 51.5% (active)
- CC(C)(C)c1ccc(S(=O)(=O)NCC2CCN(C(=O)C(=O)c3cc4ccccc4o3)CC2)cc1: 3.67% (inactive)
- Cc1ccc(S(=O)(=O)N2CCCC2C(=O)NCc2ccco2)cc1 (stereo unspecified): -5.82% (inactive)
- Cc1c(C)n2c(SCC(=O)N3CCCC3)nnc2[nH]c1=O: -9.03% (inactive)
- Cc1cccc(N2CCN(Cc3nc(C4CC4)no3)CC2)n1: -31.7% (inactive)
- COc1ccccc1CC1(C)C(=O)Nc2ccc(OC(F)(F)F)cc21 (stereo unspecified): -12.2% (inactive)
- COc1ccccc1N1CCN(C(=O)c2cn(-c3ccccc3)nc2-c2cccnc2)CC1: 22.2% (inactive)
- CCCCCCCCN1C(=O)[C@@H](CC(=O)NCc2ccc(C)o2)C[C@@]2(C(=O)OC)C1=C[C@H](C(C)(C)C)O[C@@H]2C: -36.1% (inactive)
- CCc1ccc2c(c1)NC(=O)C2(C)Cc1ccc(OC(F)(F)F)cc1 (stereo unspecified): 55.2% (active)
- COCCNC(=S)Nc1cc(S(=O)(=O)N2CCOCC2)ccc1N1CCCCC1: -23.6% (inactive)
- COc1cc(/C=N\NC(=O)c2nonc2N)c(OC)cc1Br: -10.8% (inactive)
- COc1ccc2[nH]cc(CCN3C(=O)c4ccc(C(=O)O)cc4C3=O)c2c1: -11.2% (inactive)
- NC(=O)C1CCN(C(=O)c2cn(-c3ccccc3)nc2-c2cccnc2)CC1: -9.79% (inactive)
- O=C(NN1C(=O)C2C3C=CC(C4CC34)C2C1=O)c1ccc(Cl)cc1 (stereo unspecified): 1.86% (inactive)
- Cc1ccc(-c2nn(-c3ccccc3)cc2C(=O)Nc2cccc(S(=O)(=O)N3CCOCC3)c2)cc1: 11% (inactive)
- O=C(O)c1ccc(NC(=O)c2cn(-c3ccccc3)nc2-c2ccc(Cl)cc2)cc1: 73.7% (active)
- CC(=O)c1ccccc1OCc1ccc(C(=O)c2ccccc2)cc1: 71.8% (active)
- O=C(Nc1ccc(C2CC2(Cl)Cl)cc1)c1cccc([N+](=O)[O-])c1 (stereo unspecified): 49.6% (active)
- O=C1NC[C@H](CCCCN2C[C@H](Cc3ccc(O)cc3)N(CCc3ccccc3)C(=O)C2=O)N(CCc2ccccc2)C1=O: 5.71% (inactive)
- CN(c1ccccc1)S(=O)(=O)c1ccc(Cl)c(C(=O)OCC(N)=O)c1: -0.08% (inactive)
- COc1ccc(OC)c(CNC(=O)c2cc(=O)[nH]c3ccc(S(=O)(=O)N4CCCC4)cc23)c1: -12.7% (inactive)
- Cc1ccc(CC2(C)C(=O)Nc3ccc(OC(F)(F)F)cc32)cc1 (stereo unspecified): -5.18% (inactive)
- Cn1nccc1/C=N\NC(=O)c1ccc(Cl)cc1: -23% (inactive)
- Clc1cccc2c1C1CC2CCN1Cc1ccccc1 (stereo unspecified): -3.53% (inactive)
- O=C(NC1CCC(O)CC1)c1ccccc1OCc1ccc(F)cc1 (stereo unspecified): -21.4% (inactive)
- COc1ccc(NS(=O)(=O)c2ccc(Oc3c(C#N)cccc3C#N)cc2)cc1: 38.8% (inactive)
- COc1cccc(NC(=O)N(C)C[C@@H]2OCc3cn(nn3)CCCC(=O)N([C@@H](C)CO)C[C@H]2C)c1: -3.32% (inactive)
- Cc1ccc(S(=O)(=O)N2[C@@H](Cc3ccccc3)CO[C@H]2CC(=O)OCc2ccccc2)cc1: 22.8% (inactive)
- CCCCC[C@H](C)N1C[C@@H](COCc2ccccc2)Oc2cc(N3CC[C@@H](N(C)C)C3)ccc2S1(=O)=O: -6.02% (inactive)
- Cc1ccc(-c2nn(-c3ccccc3)cc2C(=O)NCCCN2CCCC2=O)cc1: -7.1% (inactive)
- O=C(NCCCN1CCOCC1)c1cn(-c2ccccc2)nc1-c1ccc(F)cc1: 3.41% (inactive)
- O=C(NNC(=S)NC(=O)c1cn(-c2ccccc2)nc1-c1ccccc1)c1ccncc1: 49.8% (active)
- CCOc1ccc(NC(=O)N(CC(C)C)CC(C)C)cc1: -6.6% (inactive)
- C=CCC[C@H](CCCCC)OC(=O)/C=C/[C@H](O)[C@@H](O)C[C@@H](O)CC=C: -19.3% (inactive)
- COC(=O)c1ccc2nc(-c3cccc(Br)c3)c(Cc3ccccc3C(F)(F)F)n2c1: -12.6% (inactive)
- O=C(NCc1ccccc1)C(c1ccc(F)cc1)N1CCN(C(=O)C2CCCO2)CC1 (stereo unspecified): -21.5% (inactive)
- CC(=O)c1c(C)[nH]c(C(=O)COC(=O)c2cccc(S(=O)(=O)N(C)c3ccccc3)c2)c1C: 81.8% (active)
- O=C(N/N=C/c1ccccn1)c1cccc(NC(=O)c2ccc(Cl)cc2)c1: 56.6% (active)

###

- measured.target: Trace amine-associated receptor 1 (Homo sapiens) (UniProt Q96RJ0)
- assay.summary: blockers of beta-PEA-driven TAAR1 calcium signal – Fluo-8 calcium fluorescence, CHO RD-HGA16 cells, primary screen (AID 624466);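 further: 0% = DMSO plus EC80 beta-PEA response and 100% = DMSO alone without agonist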
- assay.conditions: CHO RD-HGA16 TAAR1, Fluo-8 calcium fluorescence, antagonist; at 3 µM; stronger effect = higher value
Among all 360,000 compounds or so, about 5,400 (1.5%) were called active. Shown is part of a subset that was picked to be rich in actives.
observed.property: inhibition (%)

- Cn1cnc2c1c(=O)n(Cc1c(Cl)cccc1Cl)c(=O)n2C: -4.09
- Cc1[nH]c2ccccc2c1C(=O)c1cc([C@H](NC(=O)OC(C)(C)C)C(C)C)sc1N: -5.4
- CCOC(=O)N1CCN(C(=O)C[C@H]2C[C@@]3(C(=O)OC)C(=C[C@H](C4CCCC4)O[C@@H]3C)N(Cc3ccccc3)C2=O)CC1: -6.31
- O=C(NCCN1CCOCC1)[C@H](Cc1ccccc1)N1C(=O)c2ccccc2C1=O: -8.4
- CC(C)(C)n1ncc2c(=O)n(Cc3c(Cl)cccc3Br)cnc21: 58.1
- COCc1cc(=O)[nH]c(SC)n1: -6.85
- Cc1cc(Br)ccc1NC(=O)c1cnc(N2CCN(c3ccccn3)CC2)c2ccccc12: 67.1
- N/C(=N\c1nc2ccccc2o1)NC(=O)C(Cc1ccccc1)N1C(=O)c2ccccc2C1=O (stereo unspecified): 49
- Cc1cccc2[nH]c(CN(C)C(=O)C3CCC(=O)N(CCc4ccccc4)C3)nc12 (stereo unspecified): -20.8
- C/C(=N\N1CCN(Cc2ccc(C)cc2)CC1)c1ccco1: -4.82
- CCOC(=O)C1C(c2ccc(OC)c(OC)c2)c2c([nH][nH]c2=O)CC1(C)O (stereo unspecified): 56.8
- CN(Cc1ccccc1)C(=O)COC(=O)c1ccccc1Nc1ccccc1: 22.9
- Cc1ccc(C)c(CN2CCC(CNC(=O)C3CCCN(c4ncnc5c4nc4n5CCCCC4)C3)CC2)c1 (stereo unspecified): -10.2
- CN1C(=O)C(Br)(Br)CC1c1cccnc1 (stereo unspecified): -9.8
- COc1ccccc1CCn1cnc(-c2ccccc2)c1C(C)C: 20
- COc1cccc(NC(=O)COC(=O)/C=C/c2ccco2)c1: -14.3
- CCOC(=O)C(Cc1ccc(N)cc1)N1C(=O)c2ccccc2C1=O (stereo unspecified): 10.7
- Cc1ccc(N(C(=O)CC2NC(=O)NC2=O)C2(C(=O)NC3CCCC3)CCCCC2)cc1 (stereo unspecified): -7.81
- CCCCc1c(-c2ccc(Cl)cc2)ncn1CCc1ccccc1OC: 49.6
- Cc1c(C(=O)NCc2ccc(C#N)cc2)sc(=O)n1Cc1ccc(C(=O)N(C)C)cc1: 0.09
- O=C(/C=C/c1ccco1)Nc1ccc(Oc2ccccc2)cc1: 52.3
